Record form. Attribute: viability at 28.5 h, 10 µM. Fill in for each entry.
assayMethodText: in vitro
details: human, hela cells, % viability
Numbers only, in %.

For each entry beneath this line, provide reported viability at 28.5 h, 10 µM.
1. COc1ccc(C2(CNC(C)(C)CN)CCCC2)cc1OC
2. O=C(c1cc2c(s1)CCCC2)N1CCCCC1c1nnc(-c2nccc3ccccc23)o1 (stereo not drawn)
3. C=CCn1c2cc(C)sc2c2cnn(CCC(C)=O)c(=O)c21
4. Cc1cccc(Nc2[nH]c3cc(C)ccc3c2[N+](=O)[O-])c1

output:
104
61
95.7
81.9

###

assayMethodText: in vitro
details: human, hela cells, % viability
Record form. Attribute: viability at 28.5 h, 10 µM. Fill in for each entry.
Answers are plain numbers, in %.

input: Identify measured viability at 28.5 h, 10 µM associated with O=C(NCc1ccc(Cl)cc1)c1cc(-c2ccc(F)cc2)nc2ccccc12
output: 111

input: Identify measured viability at 28.5 h, 10 µM associated with CSc1nsc(SCC(=O)N2CCN(C(c3ccccc3)c3ccccc3)CC2)n1
output: 89.2

input: Identify measured viability at 28.5 h, 10 µM associated with COC(=O)CCc1ccc(S(=O)(=O)N2CCCN(Cc3cccc4c3OCO4)CC2)cc1
output: 88.8

For each entry beneath this line, provide reported viability at 28.5 h, 10 µM.
1. CCOc1ccccc1N(CC(=O)O)S(=O)(=O)c1ccc(Cl)cc1
2. CC(=O)Nc1ccccc1NC(=O)CN(C)S(=O)(=O)c1ccc(Cl)cc1

output:
1: 110; 2: 93.2

###

Test system: CTL2-GFP (C. trachomatis L2/434/Bu, GFP-expressing)
Construct: L2/434/Bu, GFP-expressing
assayMethodText: microbe, parasite or virus in culture
Parameters: Intracellular C. trachomatis growth in HeLa cells, bulk GFP fluorescence relative to DMSO
details: Chlamydia trachomatis, HeLa, 28.5 h; bulk GFP, mean of 2; read-out: % of control remaining
experimentalReadout: activity at 5 µM (%)
Numbers only, in %.

input: Identify measured activity at 5 µM associated with Cc1cc(Br)ccc1S(=O)(=O)N(C)c1ccc(N2CCNCC2)c2ccccc12 [CBK016170C]
output: 75.3

input: Identify measured activity at 5 µM associated with CCC(Sc1nnc2c(n1)[nH]c1ccccc12)C(=O)N1c2ccccc2Sc2ccccc21 (stereo not shown) [CBK263929]
output: 52.9

input: Identify measured activity at 5 µM associated with O=C(NCCc1c[nH]c2ccc(Cl)cc12)c1c(F)ccc(Cl)c1F [CBK159756]
output: 35.2

Now, please, on to the next molecule.
input: Identify measured activity at 5 µM associated with COc1ccc([C@@H]2CN(C)C[C@H]2NC(=O)Nc2ccc(Cl)c(Cl)c2)cc1OC [CBK081111]
output: 21.4

###

assayMethodText: in vitro
details: human, hela cells, % viability
Flag rule - viability at 28.5 h, 10 µM less than 90% flags 1.0; the remaining entries get 0.0.

input: # check: viability at 28.5 h, 10 µM < 90% for COc1cc(CN2CCN(c3cc(C)ccc3C)CC2)cc([N+](=O)[O-])c1O
output: 0.0

input: # check: viability at 28.5 h, 10 µM < 90% for N#Cc1ccc(-c2cnc(N)c(-c3ccc(NC(=O)CCN4CCCCC4)cc3)n2)cc1
output: 1.0

input: # check: viability at 28.5 h, 10 µM < 90% for O=C(c1ccc(-c2cnc3[nH]c(=O)n(Cc4ccccn4)c3n2)cc1)N1CCOCC1
output: 0.0

input: # check: viability at 28.5 h, 10 µM < 90% for Cn1cc(-c2nccnc2OCCN2CCCC2=O)cn1
output: 0.0

input: # check: viability at 28.5 h, 10 µM < 90% for Cc1nc(NC(CC(C)C)C(=O)O)c2nc(C)oc2n1 (stereo not shown)
output: 0.0

input: # check: viability at 28.5 h, 10 µM < 90% for O=C(Cc1c[nH]c2ccccc12)Nc1ccccc1N1CCNCC1 [CBK028288T]
output: 0.0

input: # check: viability at 28.5 h, 10 µM < 90% for COc1cccc(CN2CCN(C(=O)c3cc(-c4ccncc4)nc4ccc(C)cc34)CC2)c1
output: 1.0

input: # check: viability at 28.5 h, 10 µM < 90% for CN1CCN(S(=O)(=O)c2ccc3oc(=O)ccc3c2)CC1
output: 0.0

---
input: # check: viability at 28.5 h, 10 µM < 90% for Brc1ccc(CSc2nc[nH]n2)cc1
output: 1.0

input: # check: viability at 28.5 h, 10 µM < 90% for CS(=O)(=O)N1CCc2cc(-c3cn4ccccc4n3)ccc21
output: 1.0
